Consider the following compounds; for each one, report its IC50.
- PROTOCOL_DESCRIPTION: Inhibition of SARS-CoV 3C-like protease (3241 to 3546 residues) expressed in Pichia pastoris GS115 using Dabcyl-KTSAVLQSGFRKME-Edans fluorogenic peptide as substrate measured for 18 mins by fluorescence method
- Set-up: species or system Severe acute respiratory syndrome-related coronavirus
Response body: numeric value in µM, unit text excluded.

Q. Reported IC50 for O=c1c(O)c(-c2ccc(O)c(O)c2)oc2cc(O)cc(O)c12 [QUERCETIN] : what is it?
A. 73

Q. Also, O=C(O[C@@H]1Cc2c(O)cc(O)cc2O[C@@H]1c1cc(O)c(O)c(O)c1)c1cc(O)c(O)c(O)c1 [EPIGALOCATECHIN GALLATE] please.
A. 73

Q. Let us now turn to O=C(O[C@@H]1Cc2c(O)cc(O)cc2O[C@H]1c1cc(O)c(O)c(O)c1)c1cc(O)c(O)c(O)c1 [GALLOCATECHIN GALLATE]
A. 47
